These measurements were taken from paper PMC12679848.

Test system: U-87 MG
Assay: MTT assay, U-87 MG
Type: cell-based
Conditions: Homo sapiens, 24 h, heading: IC50 values ± SEM, MTT assay, 24 h of incubation
Procedure: Human glioblastoma cell lines (A172 CRL-1620™, U-87 MG HTB-14™, U-118 MG HTB-15™, T98G CRL-1690™) and the mouse astrocyte cell line (C8-D1A CRL-2541™) were obtained from the American Type Culture Collection (ATCC, Manassas, VA, USA). […] Cells were counted using a Sceptre 3.0 cell counter (Merck Millipore, Burlington, MA, USA) prior to seeding into plates. […]
pIC50: −log10 of the molar value.
measurementType: pIC50

[[record]]
compound = "COC(=O)C1CC(O)CN1S(=O)(=O)c1ccc(-n2nc(C)c3nc4nnnn4nc32)cc1 (stereo not shown)"
measurementtype = "pIC50"
measuredvalue = 5.63


---

System: C8-D1A
Experiment: MTT assay, C8-D1A astrocytes
Type: cell-based
Conditions: 24 h; heading: IC50 values ± SEM, MTT assay; C8-D1A mouse astrocytes, 24 h of incubation
measurementType: IC50 (nM)

[[record]]
compound = "COC(=O)C1CC(O)CN1S(=O)(=O)c1ccc(-n2nc(C)c3nc4nnnn4nc32)cc1 (stereo not shown) [MM129]"
measuredvalue = 2860


---

Assay: Annexin V-FITC/PI apoptosis analysis, U-87 MG
Assay type: cell-based, human
Details: human, U-87 MG cells, 1.0 μM, read-out: Viable cells
The entries below are paired with their reported viability at 24 h, 1 µM.
measurementType: viability at 24 h, 1 µM (%)

[[record]]
compound = "CCC(CO)NS(=O)(=O)c1ccc(-n2nc(C)c3nc4nnnn4nc32)cc1 (stereo in doubt) [MM118]"
measuredvalue = 76.2

[[record]]
compound = "CCC(CO)NS(=O)(=O)c1ccc(-n2nc(C)c3nc4nnnn4nc32)cc1 (stereo in doubt) [MM119]"
measuredvalue = 85.4


---

Tested on: T98G
Assay: MTT assay, T98G
Format: cell-based
Conditions: Homo sapiens, 24 h of incubation, read-out: IC50 values ± SEM, MTT assay
pIC50: −log10 of the molar value.
Listed here are molecules together with their documented pIC50.
measurementType: pIC50

[[record]]
molecule = "Cc1nn(-c2ccc(S(=O)(=O)NC[C@@H](O)CO)cc2)c2nn3nnnc3nc12"
measuredvalue = "< 5.00"

[[record]]
molecule = "CCC(CO)NS(=O)(=O)c1ccc(-n2nc(C)c3nc4nnnn4nc32)cc1 (stereo in doubt) [MM119]"
measuredvalue = 5.36

[[record]]
molecule = "Cc1nn(-c2ccc(S(=O)(=O)N[C@@H](CO)CC(C)C)cc2)c2nn3nnnc3nc12"
measuredvalue = "< 5.00"

[[record]]
molecule = "Cc1nn(-c2ccc(S(=O)(=O)NC[C@H](O)CO)cc2)c2nn3nnnc3nc12"
measuredvalue = "< 5.00"

[[record]]
molecule = "Cn1nnc2c(C(N)=O)ncn2c1=O [TMZ, temozolomide, reference compound]"
measuredvalue = "< 5.00"

[[record]]
molecule = "CCC(CO)NS(=O)(=O)c1ccc(-n2nc(C)c3nc4nnnn4nc32)cc1 (stereo in doubt) [MM118]"
measuredvalue = 5.61


---

Experiment: Annexin V-FITC/PI apoptosis analysis, U-87 MG
Type: cell-based, human
Conditions: human, U-87 MG cells, 1.5 μM, read-out: Viable cells
Experimental: The level of apoptosis induction of the newly synthesised compounds MM118 and MM119 was determined using double staining with Annexin V-FITC and propidium iodide (AV/PI). This method enables the differentiation of four cell populations based on their state: viable cells, necrotic cells, cells in early apoptosis, and late apoptosis. The compounds were analysed on A172 and U-87 MG human glioblastoma multiforme cell lines using concentrations of 1 μM and 1.5 μM over a 24-h exposure period. […]
measurementType: viability at 24 h, 1.5 µM (%)

[[record]]
molecule = "CCC(CO)NS(=O)(=O)c1ccc(-n2nc(C)c3nc4nnnn4nc32)cc1 (stereo in doubt) [MM118]"
measurementtype = "viability at 24 h, 1.5 µM"
measurementunit = "%"
measuredvalue = 48.8

[[record]]
molecule = "Cn1nnc2c(C(N)=O)ncn2c1=O [TMZ, temozolomide, reference compound]"
measurementtype = "viability at 24 h, 1.5 µM"
measurementunit = "%"
measuredvalue = 93.4

[[record]]
molecule = "CCC(CO)NS(=O)(=O)c1ccc(-n2nc(C)c3nc4nnnn4nc32)cc1 (stereo in doubt) [MM119]"
measurementtype = "viability at 24 h, 1.5 µM"
measurementunit = "%"
measuredvalue = 50.5

